Test system: OVCAR-3 ovarian
Assay: NCI tumour cell line growth inhibition, 48 h
PROPERTY NAME: TGI

O=C(Nc1cccc(-n2cc(-c3ccncc3)c(-c3ccc(Cl)c(O)c3)n2)c1)c1ccc(N2CCOCC2)c(C(F)(F)F)c1; > 50 µM
O=C(c1cccs1)N(C(=S)OC12CC3CC(CC(C3)C1)C2)c1ccccc1; > 100 µM
COc1ccc2c3c1O[C@H]1C(OC)C=CC4C(C2)N(Cc2cccs2)CCC341 (stereo partly specified); > 100 µM
COc1cc2ccccc2oc1=O; > 100 µM
N#CCCN(CCCN(CCCN(C(=O)Nc1ccccc1)c1ccccc1)C(=O)Nc1ccccc1)C(=O)Nc1ccccc1; > 100 µM
CCOC(=O)C1=NN(c2ccc(C)cc2)C2=CC(C)=NN(C)C(=S)N21; > 100 µM

Challenge: TGI for COc1ccc(-c2nc(-c3ccccc3)c(-c3ccccc3)[nH]2)cc1OC1CCCC1 ?
Response given: > 100 µM

Challenge: Would you mind telling me what TGI value was observed for O=C1Nc2nc3ccccc3n2N=C2CCCC12 (stereo unspecified) ?
Response given: > 100 µM

Challenge: May I ask what TGI has been recorded for CCSc1n/c(=C\c2ccco2)c2nncn12 ?
Response given: > 100 µM

Challenge: Endpoint output: TGI of COc1ccc(C(=O)/C=C/c2cccc([N+](=O)[O-])c2)c(OC)c1 . Value?
Response given: > 50 µM

Challenge: Please look up its TGI: Cc1cc(NCCCCCCNc2cc(C)nc3cc(N(C)C)ccc23)c2ccc(N(C)C)cc2n1
Response given: > 100 µM

* * *

Test system: NCI-H23 lung
Experiment: NCI tumour cell line growth inhibition, 48 h; in the data active = GI50 below about 0.43 µM; inactive = the rest
Field 'call' accepts active, inactive

CCC(C)[C@H]1O[C@]2(C=C[C@@H]1C)C[C@@H]1C[C@@H](C/C=C(\C)[C@@H](OC3C[C@H](OC)C(O[C@H]4C[C@H](OC)[C@@H](O)[C@H](C)O4)[C@H](C)O3)[C@@H](C)/C=C/C=C3\CO[C@@H]4[C@H](O)C(C)=C[C@@H](C(=O)O1)[C@]34O)O2 (stereo partly drawn); inactive
C=CCC1(O)c2ccccc2C(=O)c2c(NCCN(CC(=O)OCC)CC(=O)OCC)cccc21 (stereo not drawn); inactive

Next item in the queue.
Challenge: Please indicate how the test categorized C=C1/C(=C\C=C2/CCC[C@]3(C)[C@@H]([C@H](C)CCCC(C)(C)O)CC[C@@H]23)C[C@@H](OC(=O)CBr)C[C@@H]1O .
Response given: active

* * *

Tested on: TK-10 renal
Assay: NCI tumour cell line growth inhibition, 48 h
Items are presented alongside their recorded TGI.

CCOC(=O)C(NC(=O)c1ccco1)(Nc1nc2ccc(OCC)cc2s1)C(F)(F)F (stereo not given); > 100 µM
Cc1ccc([N+](=O)[O-])cc1NC(=O)/C(=N/NC(=S)NN)C1SC(=S)NC1=O (stereo not given); > 100 µM
COC(=O)/C(=N\NC(=O)C[N+](C)(C)C)C(C(=O)OC)C(=O)C(=O)Nc1ccccc1C(N)=O (stereo not given); > 100 µM

Challenge: I'm curious: which TGI was measured for CCC12CCCN(Cc3ccccc3)C1c1c(n(C)c3ccccc13)C(C(=O)OC)C2 (stereo not given) tested on TK-10 renal?
Response given: > 239 µM

Challenge: Lab note: need TGI with TK-10 renal for entry Cc1cn(C2CC(O)C(COC(=O)NCCC(F)(F)C(F)(F)C(F)(F)C(F)(F)F)O2)c(=O)[nH]c1=O (stereo not given) , please look it up.
Response given: > 100 µM

* * *

System: M19-MEL melanoma
Experiment: NCI tumour cell line growth inhibition, 48 h
PROPERTY NAME: TGI

Examples with their reported TGI follow.
CN(C)CC(CC1=C(CC(CN(C)C)N(C)C)CCC1)N(C)C (configuration not stated); > 100 µM
O=C1c2ccccc2OP(=O)(OCC(F)(F)F)OC1(C(F)(F)F)C(F)(F)F (configuration not stated); > 100 µM
COC(=O)C(C#CCCCCC#CC(NC(=O)OCc1ccccc1)(C(=O)OC)C(F)(F)F)(NC(=O)OCc1ccccc1)C(F)(F)F (configuration not stated); > 100 µM
CC1CN(c2ccc(Cl)cc2)CC(C)OC(=O)O1 (configuration not stated); > 100 µM

Challenge: Look at this compound and give its reported TGI. O=C(CC(=O)C1=CNc2ccccc2S1)C(=O)Nc1ccc(Cl)cc1
Response given: > 50 µM

Challenge: So what's the measured TGI for this one? COc1ccc(N=Cc2ccc(N(CCC#N)S(=O)(=O)c3ccccc3)cc2)cc1
Response given: > 100 µM

Challenge: Form field: reported TGI of COc1cc([C@@H]2c3cc4c(cc3[C@@H](OC(=O)c3ccc(N)cc3)C3COC(=O)[C@@H]32)OCO4)cc(OC)c1O (some centres not stated)
Response given: > 95 µM

* * *

Listing of recorded TGI by entry.
Tested on: SF-539 CNS
Experiment: NCI tumour cell line growth inhibition, 48 h

Some compounds with known TGI results, for comparison:
Brc1cc(CCOC2CCCCO2)c(-c2sccc2CCOC2CCCCO2)s1 (centres undefined); > 100 µM
Nc1nc(N)c2nc(CNc3ccc(C(=O)NC(CC(=O)O)C(=O)O)cc3)cnc2n1 (centres undefined); > 100 µM
CN(C)C(=S)/N=c1\ssc(=S)n1Cc1cccnc1; > 100 µM

In the following, a different compound is considered.
Challenge: What value of TGI has been recorded for this entry: COc1cc2c(cc1OC)C(=O)/C(=C/c1ccc(Cl)cc1)CC2
Response given: > 10 µM

* * *

Test system: COLO 205 colon
Assay: NCI tumour cell line growth inhibition, 48 h
PROPERTY NAME: TGI

CCC1CN2C(=N1)c1ccccc1-c1cc(Cl)ccc12 (stereo not given); 12.6 µM
Cn1c2ccc3cc2c(=S)c2cc(ccc21)OCCOCCOCCOCCOCCO3; > 10 µM
CN1c2ccccc2N(C(=O)c2ccc(Cl)cc2)C(CC(=O)O)c2cccn21 (stereo not given); > 100 µM
COc1cccc(C2=C(c3c(C)n(C)c4ccccc34)C(=O)NC2=O)c1; > 25 µM

For the next question, use this compound.
Challenge: // TGI lookup, key: C=CCC1(OC(C)=O)C2OC(=O)C1(O)OCC2O (stereo not given)
Response given: > 100 µM

* * *

System: UACC-62 melanoma
Test: NCI tumour cell line growth inhibition, 48 h
PROPERTY NAME: TGI

Challenge: Recorded TGI for O=c1c2ccccc2c(=O)n2n1CC=CC2 , please?
Response given: > 100 µM

* * *

Measured TGI, listed per entry.
System: SNB-75 CNS
Experiment: NCI tumour cell line growth inhibition, 48 h

// worked examples, TGI included
O=c1ccn(C2CC(O)C(CO)O2)c(=O)[nH]1 (stereo unspecified); > 5000 µM
O=C(c1cccs1)N(C(=S)OC12CC3CC(CC(C3)C1)C2)c1ccccc1; > 100 µM
CC(C)=CCC/C(=C/CC/C(=C\CCc1ccoc1)C(=O)O)C(=O)O; > 100 µM
O=C(Nc1ccncc1)C(=O)c1cn(Cc2ccc(Cl)cc2)c2ccccc12; 3.79 µM
CC(=O)Oc1ccc(-c2cc3ccccc3oc2=O)cc1; > 100 µM

Challenge: Which TGI value belongs to CCOC(=O)c1cc2c(n1Cc1cccc(OC)c1)-c1oncc1CCC2 ?
Response given: 6.56 µM

Challenge: Reported TGI, molecule O=C1NCc2ccccc2S(=O)(=O)n2cccc21 : ____
Response given: > 100 µM

Challenge: What does the record list as TGI for Cc1ccc(C(CC(=O)c2ccccc2)C2C(=O)NC(=O)NC2=O)cc1 (stereo unspecified) ?
Response given: > 100 µM

Challenge: May I ask what TGI has been recorded for COC(=O)[C@@]12OC[C@]34[C@H]([C@@H](O)[C@@H]1O)[C@@]1(C)[C@H](O)C(=O)C=C(C)[C@@H]1C[C@H]3OC(=O)C(OC(C)=O)[C@@H]24 (stereo partly specified) ?
Response given: 0.121 µM

Challenge: So what's the measured TGI for this one? O=C1C(N2CC2)=C(N2CC2)C(=O)C(N2CC2)=C1N1CC1
Response given: 1.11 µM

* * *

Entries annotated with measured TGI
System: HCC-2998 colon
Assay: NCI tumour cell line growth inhibition, 48 h

CCOC(=O)Cn1c(=O)c2nc(SC)sc2n(CC)c1=S; > 100 µM
O=C1NC(=S)N/C1=C\c1ccc(Br)s1; > 100 µM
CCC12CCCN(Cc3ccccc3)C1c1c(n(C)c3ccccc13)C(C(=O)OC)C2 (configuration not stated); > 239 µM
COc1ccc2c(c1)[nH]c1c(/C=C/c3ccccc3)nccc12; 29.9 µM
CCOC1=C2C(=O)OC(=O)C2C2CCCCC2=C1 (configuration not stated); > 100 µM

# context switch: different molecule, same TGI
Challenge: Entry O=c1oc(Cl)c(Cl)c2ccccc12 has what TGI?
Response given: 73.9 µM
